Provide the reported IC50 of each item.
- System: NCI-H510A;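 further: growth inhibition of NCI-H510A cells, read out with a cell viability assay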
- protocol: cells
- Assay type: functional, cell-based
- protocol_conditions: Homo sapiens
- Description: SANGER: Inhibition of human NCI-H510A cell growth in a cell viability assay.

Just so you know, measured IC50 for CO[C@H]1C[C@@H]2CC[C@@H](C)[C@@](O)(O2)C(=O)C(=O)N2CCCC[C@H]2C(=O)O[C@H]([C@H](C)C[C@@H]2CC[C@@H](O)[C@H](OC)C2)CC(=O)[C@H](C)/C=C(\C)[C@@H](O)[C@@H](OC)C(=O)[C@H](C)C[C@H](C)/C=C/C=C/C=C/1C [SIROLIMUS] came out at > 0.1 µM

What the record says about COC(=O)CNC(=O)C(=O)OC : IC50 is 237 µM

Short answer for CNC(=O)c1cc(Oc2ccc(NC(=O)Nc3ccc(Cl)c(C(F)(F)F)c3)cc2)ccn1 [SORAFENIB] : IC50 was > 4 µM

Recorded IC50 (compound CS(=O)(=O)CCNCc1ccc(-c2ccc3ncnc(Nc4ccc(OCc5cccc(F)c5)c(Cl)c4)c3c2)o1 [LAPATINIB] ): > 2 µM

Memo: COc1cc([C@@H]2c3cc4c(cc3[C@@H](O[C@@H]3O[C@@H]5CO[C@@H](C)O[C@H]5[C@H](O)[C@H]3O)[C@H]3COC(=O)[C@H]23)OCO4)cc(OC)c1O [ETOPOSIDE] , reported IC50: 8.65 µM

Sample Cc1cc([C@@H](C)Nc2ccccc2C(=O)O)c2nc(N3CCOCC3)cc(=O)n2c1 [AZD-6482] ; IC50 observed: > 5.12 µM

Field IC50 (entry CC1=C2C[C@H]3[C@@H](CC=C4C[C@@H](O)CC[C@@]43C)[C@@H]2CC[C@]12O[C@@H]1C[C@H](C)CN[C@H]1[C@H]2C [CYCLOPAMINE] ) reads > 16 µM

Reported IC50 of O=C(c1cc(Cc2n[nH]c(=O)c3ccccc23)ccc1F)N1CCN(C(=O)C2CC2)CC1 [OLAPARIB] : 3.83 µM

// field: IC50; key: Cn1cc(C2=C(c3ccc(Cl)cc3Cl)C(=O)NC2=O)c2ccccc21 [SB-216763] ; value = > 10 µM
